Origin of values: patent US11957759B1

target: B-RAF V600E (Homo sapiens, UniProt P15056, V600E); construct: expressed in transfected cells; host or cells: T-Rex 293 cells (Invitrogen #R71007); assay: Target protein degradation, assay A: T-Rex 293 cells, HA-B-RAF_V600E, 96 well format; format: cell-based; settings: T-Rex 293 HA-B-RAF_V600E cells, 24 hours, Examples 1-82
Sequence (P15056 whole entry V600E): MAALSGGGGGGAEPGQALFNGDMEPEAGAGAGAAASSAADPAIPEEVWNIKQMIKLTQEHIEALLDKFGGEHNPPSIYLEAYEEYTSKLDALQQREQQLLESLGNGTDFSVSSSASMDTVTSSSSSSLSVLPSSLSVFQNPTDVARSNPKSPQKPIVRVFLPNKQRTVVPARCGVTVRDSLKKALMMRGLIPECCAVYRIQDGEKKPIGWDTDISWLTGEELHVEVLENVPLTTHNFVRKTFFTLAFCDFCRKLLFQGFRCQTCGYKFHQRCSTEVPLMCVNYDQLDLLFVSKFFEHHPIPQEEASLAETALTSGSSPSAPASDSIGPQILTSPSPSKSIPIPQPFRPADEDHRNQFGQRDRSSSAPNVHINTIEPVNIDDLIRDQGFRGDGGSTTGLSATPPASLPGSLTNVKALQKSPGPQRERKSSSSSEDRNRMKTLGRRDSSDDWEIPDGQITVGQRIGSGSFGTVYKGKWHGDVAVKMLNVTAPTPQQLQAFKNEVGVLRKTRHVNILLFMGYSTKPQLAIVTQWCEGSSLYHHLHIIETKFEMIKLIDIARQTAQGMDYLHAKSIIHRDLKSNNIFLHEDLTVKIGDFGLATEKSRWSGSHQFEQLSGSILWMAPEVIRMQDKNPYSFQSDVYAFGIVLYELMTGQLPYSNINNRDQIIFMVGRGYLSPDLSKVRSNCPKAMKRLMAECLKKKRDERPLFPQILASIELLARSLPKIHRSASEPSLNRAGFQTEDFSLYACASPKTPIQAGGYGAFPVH
As shown below, each of these molecules has a reported Dmax value.

>  <molecule>
N#Cc1c(NS(=O)(=O)N2CC[C@@H](F)C2)ccc(F)c1Oc1ccc2ncn(-c3ccc(N4CCN(CC5CCN(c6ccc7c(c6)CN(C6CCC(=O)NC6=O)C7=O)CC5)CC4)cc3)c(=O)c2c1 (stereo partly drawn)

>  <Dmax>
35 to 70%

$$$$
>  <molecule>
N#Cc1c(NS(=O)(=O)N2CC[C@@H](F)C2)ccc(F)c1Oc1ccc2ncn(-c3ccc(N4CCN(CC5CCN(c6cccc7c6ccn7C6CCC(=O)NC6=O)CC5)CC4)cc3)c(=O)c2c1 (stereo partly drawn)

>  <Dmax>
35 to 70%

$$$$
>  <molecule>
N#Cc1c(NS(=O)(=O)N2CC[C@@H](F)C2)ccc(F)c1Oc1ccc2ncn(-c3ccc(N4CCN(CC5CCN(c6ccc(C7CCC(=O)NC7=O)cc6F)CC5)CC4)nc3)c(=O)c2c1 (stereo partly drawn)

>  <Dmax>
35 to 70%

$$$$
